- EXPERIMENTAL TARGET: Xyl3A (Mycothermus thermophilus)
- Construct: mature Xyl3A, signal peptide (residues 1-19) removed; precursor 777 residues; pPIC9 alpha-factor fusion, secreted from Pichia pastoris GS115
- Sequence (A0A0C5AKM5 20-777): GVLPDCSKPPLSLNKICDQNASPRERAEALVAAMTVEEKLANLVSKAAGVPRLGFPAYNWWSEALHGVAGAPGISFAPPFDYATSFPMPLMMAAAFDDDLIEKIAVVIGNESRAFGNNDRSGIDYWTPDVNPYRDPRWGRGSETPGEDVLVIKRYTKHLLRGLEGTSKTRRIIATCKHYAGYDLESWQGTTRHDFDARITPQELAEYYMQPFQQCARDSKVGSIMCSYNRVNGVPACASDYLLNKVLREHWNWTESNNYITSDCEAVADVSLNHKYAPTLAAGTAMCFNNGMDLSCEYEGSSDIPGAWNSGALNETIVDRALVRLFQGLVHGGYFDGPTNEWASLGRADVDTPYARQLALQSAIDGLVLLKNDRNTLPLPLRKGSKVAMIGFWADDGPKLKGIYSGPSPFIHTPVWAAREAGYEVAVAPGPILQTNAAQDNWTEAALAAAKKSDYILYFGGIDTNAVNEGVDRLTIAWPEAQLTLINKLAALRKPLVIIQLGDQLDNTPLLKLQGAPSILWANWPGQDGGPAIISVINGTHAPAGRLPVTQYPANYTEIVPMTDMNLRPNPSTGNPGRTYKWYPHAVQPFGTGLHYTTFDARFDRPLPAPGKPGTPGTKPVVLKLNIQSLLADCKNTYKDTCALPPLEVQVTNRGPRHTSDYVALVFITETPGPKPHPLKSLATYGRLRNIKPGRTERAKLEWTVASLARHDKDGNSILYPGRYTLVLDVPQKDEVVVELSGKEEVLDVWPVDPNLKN
- PROTOCOL DETAILS: pNPX hydrolysis at […] nm, Dixon plot
- STATED CONDITIONS: pNPX 0.75 and 1 mM, xylose 5-50 mM, pH 6.0, 60°C; competitive (general statement for β-xylosidases); Methods define Ki as xylose giving 50% inhibition
RECORDED METRIC: pKi
Lab note — pKi values are minus log10 of concentrations in M.

// pKi value for OC1OC[C@@H](O)[C@H](O)[C@H]1O (stereo partly shown) : 1.54
